The measurements presented in this section are drawn from patent US8338472B2.

Target: glucocorticoid receptor (GR) (Homo sapiens, UniProt P04150)
Sequence (P04150 1-777): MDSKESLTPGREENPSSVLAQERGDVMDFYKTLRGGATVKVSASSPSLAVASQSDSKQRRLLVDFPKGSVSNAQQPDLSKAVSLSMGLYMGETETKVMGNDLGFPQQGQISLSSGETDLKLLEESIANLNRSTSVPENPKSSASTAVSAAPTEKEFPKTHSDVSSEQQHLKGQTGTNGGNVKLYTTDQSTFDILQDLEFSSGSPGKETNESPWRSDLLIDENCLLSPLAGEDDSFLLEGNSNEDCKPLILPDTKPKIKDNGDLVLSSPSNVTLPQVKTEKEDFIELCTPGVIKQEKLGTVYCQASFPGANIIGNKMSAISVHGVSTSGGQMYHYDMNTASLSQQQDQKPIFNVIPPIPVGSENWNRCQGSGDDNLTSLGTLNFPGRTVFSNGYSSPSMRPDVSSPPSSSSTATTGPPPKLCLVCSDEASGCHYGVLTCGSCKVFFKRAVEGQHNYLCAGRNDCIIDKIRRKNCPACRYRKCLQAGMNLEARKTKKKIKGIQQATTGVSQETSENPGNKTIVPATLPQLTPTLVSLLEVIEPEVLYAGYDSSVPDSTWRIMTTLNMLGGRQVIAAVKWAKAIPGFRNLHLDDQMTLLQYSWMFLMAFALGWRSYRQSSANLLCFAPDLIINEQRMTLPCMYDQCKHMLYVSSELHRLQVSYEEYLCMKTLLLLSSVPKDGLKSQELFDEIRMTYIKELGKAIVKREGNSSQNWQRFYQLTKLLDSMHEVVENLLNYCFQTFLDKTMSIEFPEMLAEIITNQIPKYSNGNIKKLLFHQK
Test: Ligand binding assay (GR BIND), 3H-dexamethasone displacement in MDA-MB-453 cell lysate
Conditions: GR BIND Ki, Table 1
Readout label: Ki (nM)
Enter your answer as a number in nM; do not include the unit.

Solved cases below.
- C[C@]12Cc3cnn(-c4ccc(F)cc4)c3C=C1CC[C@@H]2C(=O)N(Cc1ccccc1F)CC(O)C(F)(F)F (stereo partly shown): 3.9
- CC(C)CN(C[C@H](C)O)C(=O)[C@H]1CCC2=Cc3c(cnn3-c3ccc(F)cc3)C[C@@]21C: 8.7

Looking up CCCCN(CC=O)C(=O)[C@H]1CCC2=Cc3c(cnn3-c3ccc(F)cc3)C[C@@]21C , I found its Ki recorded as 4.4

Looking up COCCN(Cc1ccc(OC)cc1)C(=O)[C@H]1CCC2=Cc3c(cnn3-c3ccc(F)cc3)C[C@@]21C , I found its Ki recorded as 8.7

###

Biological target: Glucocorticoid Receptor (Homo sapiens, UniProt P04150)
Construct: These cells express large amount of the GR and are very responsive to GC treatment; endogenous in cells; host or cells: A549 cells transiently transfected with the MMTV-LUC reporter
Experiment: Trans-Activation Modulation of Glucocorticoid Receptor (GRAMMER), MMTV-LUC reporter gene in A549 cells
Assay type: cell-based
Conditions: A549, A549 cells; Emax relative to 300 nM dexamethasone; Table 1; read-out: Transactivation A549 Cells GRAMMER Emax
Readout label: Emax
Your reply should be a number followed by the unit it is expressed in.

Solved cases below.
• CC(C)CCN(CCC(C)C)C(=O)[C@H]1CCC2=Cc3c(cnn3-c3ccc(F)cc3)C[C@@]21C = 5.6%
• CCCN(CC1CC1)C(=O)[C@H]1CCC2=Cc3c(cnn3-c3ccc(F)cc3)C[C@@]21C = 35.4%
• C[C@]12Cc3cnn(-c4ccc(F)cc4)c3C=C1CC[C@@H]2C(=O)N(CCO)Cc1ccccc1CS(=O)(=O)c1ccccc1 = 4.3%
• C[C@]12Cc3cnn(-c4ccc(F)cc4)c3C=C1CC[C@@H]2C(=O)N(CCC#N)CCC#N = 14.4%

Looking up C[C@]12Cc3cnn(-c4ccc(F)cc4)c3C=C1CC[C@@H]2C(=O)N1CCCCC1CCc1ccccc1 (stereo partly shown) , I found its Emax recorded as 3.8%

Looking up C[C@]12Cc3cnn(-c4ccc(F)cc4)c3C=C1CC[C@@H]2C(=O)N(CCC#N)C1CC1 , I found its Emax recorded as 11.2%

Looking up C[C@]12Cc3cnn(-c4ccc(F)cc4)c3C=C1CC[C@@H]2C(=O)N(CCO)Cc1cc(F)c(F)c(F)c1 , I found its Emax recorded as 10.6%
